# TESTED_SYSTEM: CfEcR-DEF mutant M92L (Choristoneura fumiferana, UniProt O77255, M375L)
# Sequence (O77255 entry or part of it M375L): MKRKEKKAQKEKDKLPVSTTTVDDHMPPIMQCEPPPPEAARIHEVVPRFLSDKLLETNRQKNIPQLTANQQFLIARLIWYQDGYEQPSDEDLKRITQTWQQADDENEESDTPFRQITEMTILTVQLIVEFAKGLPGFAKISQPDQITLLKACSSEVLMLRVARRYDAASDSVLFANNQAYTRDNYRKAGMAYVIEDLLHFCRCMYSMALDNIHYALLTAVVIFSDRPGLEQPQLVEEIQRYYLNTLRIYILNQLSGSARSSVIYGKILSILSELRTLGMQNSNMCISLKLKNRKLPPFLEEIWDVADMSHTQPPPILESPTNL
# Sequence (P28702 299-449, further chain): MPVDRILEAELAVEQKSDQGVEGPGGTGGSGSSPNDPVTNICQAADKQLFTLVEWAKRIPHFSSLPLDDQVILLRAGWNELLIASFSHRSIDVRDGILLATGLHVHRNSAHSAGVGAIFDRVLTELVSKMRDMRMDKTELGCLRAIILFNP
# ASSAY_NOTES: cell-based
# TEST_PARAMETERS: mutant M92L; read-out: EC50
pEC50: −log10 of the molar value.
ATTRIBUTE_MEASURED: pEC50

## Input Request the reported pEC50 associated with CC(C)(O)CC[C@@H](O)[C@](C)(O)[C@H]1CC[C@@]2(O)C3=CC(=O)[C@@H]4C[C@@H](O)[C@@H](O)C[C@]4(C)[C@H]3CC[C@]12C [20E, 20-hydroxyecdysone]
## Output < 4.48

## Input Request the reported pEC50 associated with `CC(C)CC[C@@H](O)[C@](C)(O)[C@H]1CC[C@@]2(O)C3=CC(=O)[C@@H]4C[C@@H](O)[C@@H](O)C[C@]4(C)[C@H]3CC[C@]12C`
## Output < 4.48
